experiment: Half life in CD-1 mouse at 25 mg/kg, po; format: ADME, organism-based; design: dose 25 mg/kg, route oral; details: in vivo
The molecules listed here are annotated with their half-life.
READOUT LABEL: half-life (h)

* CC1(C)CC(=O)c2c(C(F)(F)F)nn(-c3ccc(C(N)=O)c(N[C@H]4CC[C@H](O)CC4)c3)c2C1 | 2.9
* COc1c(C)cnc(Cn2cc(C#CCC(C)(C)O)c3c(Cl)nc(N)nc32)c1C | 1.5

====

test: Tmax in CD-1 mouse at 25 mg/kg, po; assay type: ADME, organism-based; design: dose 25 mg/kg, route oral; settings: in vivo
# reported Tmax; entries follow
READOUT LABEL: Tmax (min)

• COc1c(C)cnc(Cn2cc(C#CCC(C)(C)O)c3c(Cl)nc(N)nc32)c1C = 30
• CC1(C)CC(=O)c2c(C(F)(F)F)nn(-c3ccc(C(N)=O)c(N[C@H]4CC[C@H](O)CC4)c3)c2C1 = 60
